Taken from patent US20240309103A1.

Biological target: T1, hNPR1-mFc:hBNP complex (human, UniProt P16860 103-134)
T1 construct: also called human NPR1 complexed to BNP
Test: SPR, mAb captured, 37C
Procedure: Equilibrium dissociation constant (KD) for different NPR1 reagents binding to purified anti-NPR1 monoclonal antibodies (mAbs) were determined using a real-time surface plasmon resonance based Biacore 4000 biosensor. All binding studies were performed in 10 mM HEPES, 150 mM NaCl, 3 mM EDTA, and 0.05% v/v Surfactant Tween-20, pH 7.4 (HBS-ET) running buffer at 25° C. and 37° C. […]
Readout type: kon

Some binders with known kon results, for comparison:
>  <Binder>
mAb25502 (antibody, human IgG4, V domains shown) VH: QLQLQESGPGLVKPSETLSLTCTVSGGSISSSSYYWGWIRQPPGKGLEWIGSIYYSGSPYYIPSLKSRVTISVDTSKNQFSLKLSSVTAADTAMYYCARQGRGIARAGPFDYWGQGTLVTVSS VL: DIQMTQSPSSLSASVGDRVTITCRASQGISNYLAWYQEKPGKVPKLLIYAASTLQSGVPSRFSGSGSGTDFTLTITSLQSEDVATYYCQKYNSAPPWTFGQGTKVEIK

>  <kon>
60300 M⁻¹ s⁻¹

$$$$
>  <Binder>
mAb22805 (antibody, human IgG4, V domains shown) VH: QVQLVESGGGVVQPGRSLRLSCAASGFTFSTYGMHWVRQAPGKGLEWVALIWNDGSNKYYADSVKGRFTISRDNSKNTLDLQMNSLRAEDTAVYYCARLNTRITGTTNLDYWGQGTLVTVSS VL: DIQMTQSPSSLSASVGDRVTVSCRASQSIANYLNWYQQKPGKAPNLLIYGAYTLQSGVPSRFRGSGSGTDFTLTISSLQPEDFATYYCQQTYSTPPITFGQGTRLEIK

>  <kon>
52000 M⁻¹ s⁻¹

$$$$
>  <Binder>
mAb22033 (antibody, human IgG4, V domains shown) VH: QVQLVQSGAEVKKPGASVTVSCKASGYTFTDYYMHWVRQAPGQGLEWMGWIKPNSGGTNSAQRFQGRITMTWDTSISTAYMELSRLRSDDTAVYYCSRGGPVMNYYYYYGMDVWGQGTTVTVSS VL: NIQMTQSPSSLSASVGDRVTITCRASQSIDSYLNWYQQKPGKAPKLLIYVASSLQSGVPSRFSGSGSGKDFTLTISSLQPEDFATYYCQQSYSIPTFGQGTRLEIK

>  <kon>
53700 M⁻¹ s⁻¹

$$$$

Here is the next item to consider.
I am curious: what kon value has been reported for mAb25508 (antibody, human IgG4, V domains shown) VH: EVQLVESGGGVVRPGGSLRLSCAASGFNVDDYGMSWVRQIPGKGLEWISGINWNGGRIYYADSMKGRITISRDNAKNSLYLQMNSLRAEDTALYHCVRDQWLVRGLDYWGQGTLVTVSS VL: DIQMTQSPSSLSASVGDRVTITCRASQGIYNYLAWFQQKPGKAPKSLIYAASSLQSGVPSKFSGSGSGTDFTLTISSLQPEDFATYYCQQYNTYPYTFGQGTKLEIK ? 352000 M⁻¹ s⁻¹
